meta.source: the supplement of paper PMC11061612

Parameter Bliss excess: see the listing below.
system: SW1088 (Low Grade Glioma); assay: Bliss excess, mean over the matrix (fraction); higher = more synergy;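 note: after 72 h of two-drug dosing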
readout.kind: Bliss excess

[
  {
    "compound": "CN(CCO)CC[C@H](CSc1ccccc1)Nc1ccc(S(=O)(=O)NC(=O)c2ccc(N3CCC([C@@H](O)c4ccccc4-c4ccc(Cl)cc4)CC3)cc2)cc1S(=O)(=O)C(F)(F)F [AZD4320] + Cn1cnc2c(F)c(Nc3ccc(Br)cc3Cl)c(C(=O)NOCCO)cc21 [Selumetinib] (first compound max 1 µM, 7x7, partner max 3 µM)",
    "measurement.target": "SW1088 (Low Grade Glioma)",
    "result": 0.0246
  },
  {
    "compound": "C=CCn1c(=O)c2cnc(Nc3ccc(N4CCN(C)CC4)cc3)nc2n1-c1cccc(C(C)(C)O)n1 [AZD1775] + CCc1c2c(nc3ccc(O)cc13)-c1cc3c(c(=O)n1C2)COC(=O)[C@]3(O)CC [SN-38] (first compound max 1 µM, partner max 0.3 µM)",
    "measurement.target": "SW1088 (Low Grade Glioma)",
    "result": -0.0641
  },
  {
    "compound": "CN(CCO)CC[C@H](CSc1ccccc1)Nc1ccc(S(=O)(=O)NC(=O)c2ccc(N3CCC([C@@H](O)c4ccccc4-c4ccc(Cl)cc4)CC3)cc2)cc1S(=O)(=O)C(F)(F)F [AZD4320] + Cc1cc2ncnn2cc1Nc1ncc2c(n1)n(C1CCOCC1)c(=O)n2C [AZD7648] (first compound max 1 µM, 7x7, partner max 10 µM)",
    "measurement.target": "SW1088 (Low Grade Glioma)",
    "result": -0.0184
  },
  {
    "compound": "Cc1nc(Nc2ncc(C(=O)Nc3c(C)cccc3Cl)s2)cc(N2CCN(CCO)CC2)n1 [Dasatinib] + CC(=O)Nc1cccc(-n2c(=O)n(C3CC3)c(=O)c3c(Nc4ccc(I)cc4F)n(C)c(=O)c(C)c32)c1 [Trametinib] (first compound max 2 µM, 7x7, partner max 1 µM)",
    "measurement.target": "SW1088 (Low Grade Glioma)",
    "result": -0.0087
  },
  {
    "compound": "Cc1c2c(nn1C)CSCc1cc(n(C)n1)CSc1cc(c3ccccc3c1)OCCCc1c(C(=O)O)n(C)c3c-2c(Cl)ccc13 [AZD5991] + CN(C)CCCOc1ccc(-c2ccc3ncc4c(c3c2)n(C2CCOCC2)c(=O)n4C)cn1 [AZD0156] (first compound max 1 µM, 7x7, partner max 1 µM)",
    "measurement.target": "SW1088 (Low Grade Glioma)",
    "result": -0.0356
  },
  {
    "compound": "NC1(C(=O)N[C@@H](CCO)c2ccc(Cl)cc2)CCN(c2ncnc3[nH]ccc23)CC1 [Capivasertib] + COc1nnc2ccc(N3CCC(c4ccc(OCCN5CCN(C)C(=O)[C@H]5C)cc4)CC3)nn12 [AZD5153] (first compound max 10 µM, 7x7, partner max 1 µM)",
    "measurement.target": "SW1088 (Low Grade Glioma)",
    "result": 0.0253
  },
  {
    "compound": "COc1nnc2ccc(N3CCC(c4ccc(OCCN5CCN(C)C(=O)[C@H]5C)cc4)CC3)nn12 [AZD5153] + Cn1cnc2c(F)c(Nc3ccc(Br)cc3Cl)c(C(=O)NOCCO)cc21 [Selumetinib] (first compound max 1 µM, 7x7, partner max 10 µM)",
    "measurement.target": "SW1088 (Low Grade Glioma)",
    "result": 0.029
  }
]
